The reported numbers originate from PubChem BioAssay AID720511.

Readings of activity (quench increase) for the listed compounds
assay: F508del CFTR correction, initial screen, CFBE line, single point (AID 720511); conditions: CFBE cells, YFP halide quenching, at 7.58 µM, hits give high values, % fluorescence drop versus neutral controls, stimulated with forskolin plus potentiator P3;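 note: cells transiently co-express mutant CFTR-F508del with the halide-sensitive YFP; corrector assay measuring rescue of mutant channel to the surface after 24 h compound exposure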
Out of some 350,000 compounds screened, about 1,300 (0.37%) were called active. This is one part of a sample in which actives are shown more often than they occur.
measurement-kind: activity (quench increase) (%)

[[record]]
smiles_record = "Cc1ccc(NC(=O)CN(C)CC(=O)Nc2cccc(F)c2)cc1[N+](=O)[O-]"
measured_result = 1.68

[[record]]
smiles_record = "C[C@H](CO)N1C[C@H](C)[C@H](CN(C)S(=O)(=O)c2ccc(Cl)cc2)Oc2c(NS(C)(=O)=O)cccc2C1=O"
measured_result = 1.05

[[record]]
smiles_record = "CCCn1nc(C(=O)Nc2ccc3nc(C)sc3c2)c2ccccc2c1=O"
measured_result = -0.539

[[record]]
smiles_record = "COc1ccc(C(=O)N/N=C(\\C)CC(=O)Nc2ccc(Cl)cn2)cc1"
measured_result = 0.068

[[record]]
smiles_record = "CO[C@@H]1CC[C@@H]2CCOc3c(C#N)cccc3C(=O)N(C)C[C@H](C)C(=O)N(C)C[C@H]1O2"
measured_result = 1.86

[[record]]
smiles_record = "COc1ccc(OC)c(/C(C)=N\\NC(=O)c2cc3cc(Cl)ccc3n2C)c1"
measured_result = 14.1

[[record]]
smiles_record = "CCCC(=O)Nc1nc2ccc(NC(=O)c3c(F)c(F)c(OC)c(F)c3F)cc2s1"
measured_result = 13.3

[[record]]
smiles_record = "C[C@@H]1CN([C@H](C)CO)C(=O)c2cccc(NC(=O)Nc3cccc4ccccc34)c2O[C@@H]1CN(C)C(=O)Nc1ccc(F)cc1"
measured_result = 1.61

[[record]]
smiles_record = "CC(C)Cc1ccc(-c2cc3nc(NCc4cccc(Cl)c4)ccn3n2)cc1"
measured_result = 8.67

[[record]]
smiles_record = "COc1cccc(-c2ccc3c(c2)[C@H]2[C@H](CCN2C(=O)c2ccc(F)cc2)[C@@H](CO)N3)c1"
measured_result = 1.42

[[record]]
smiles_record = "Cc1ccc(S(=O)(=O)Nc2ccc3c(c2)C(=O)N([C@@H](C)CO)C[C@@H](C)[C@H](CN(C)Cc2ccncc2)O3)cc1"
measured_result = -0.494

[[record]]
smiles_record = "COc1ccc(NC(=O)N(C)C[C@H]2OCCCC[C@H](C)Oc3ccc(NC(=O)NC4CCCCC4)cc3C(=O)N([C@@H](C)CO)C[C@@H]2C)cc1"
measured_result = -0.706

[[record]]
smiles_record = "COCCCNc1ccn2nc(-c3ccc(CC(C)C)cc3)cc2n1"
measured_result = 2.65

[[record]]
smiles_record = "O=C(C[C@H]1C[C@@H]2c3cc(NC(=O)c4ccc5c(c4)OCO5)ccc3O[C@@H]2[C@@H](CO)O1)NCCN1CCCCC1"
measured_result = 0.031

